List of growth inhibition values.
Assay: NCI Yeast Anticancer Drug Screen. Data for the rad14 strain (AID 159);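 also: 0% = growth of vehicle-treated control cultures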
Conditions: S. cerevisiae rad14 strain growth inhibition; at 1.2 µM; stronger effect = higher value
This is part of a sample that, as a whole, favours compounds with a hit. Of some 79,000 tested, about 15% had one in any assay.
Your answer should be a plain number; it is taken to be in %.

| COMPOUND | UNIT TEXT | REPORTED |
| --- | --- | --- |
| Cc1ccc2c(c1N)C(=O)c1ccccc1C2=O | % | 3 |
| O=S(=O)(O)/C(=C\c1ccccc1)c1ccccc1 (tested in a mixture with another compound) | % | 0 |
| C[C@]12CCC(=O)C=C1CC[C@@H]1C2CC[C@@]2(C)C1CC[C@@H]2OC(=O)C12OC1CCC2=O (stereo partly specified) | % | -9 |
| Cc1cc[n+](C2=C(Nc3cccc(C(F)(F)F)c3)C(=O)c3ccccc3C2=O)cc1 | % | 0 |
| Oc1c(Br)cc(Br)cc1Br | % | -2 |

Q: Please give measured growth inhibition of the following entry: CCN(CCCl)CCCCNc1c2ccccc2nc2ccc(OC)cc12
Ans: 4

---

Experiment: NCI Yeast Anticancer Drug Screen. Data for the mec2-1 strain (AID 157)
Conditions: S. cerevisiae mec2-1 strain, at 50.0 µM (retest, dose inferred, filed as 5.0)
This is part of a sample that, as a whole, favours compounds with a hit. Of some 79,000 tested, about 15% had one in any assay. Activity calls are given as the source filed them. Rule as the data show it: active = growth inhibition above about 70%; inactive = the rest.
Entry note: the call must match one of active, inactive

| COMPOUND | CLASS NAME |
| --- | --- |
| O=S(=O)(F)c1ccc(Cl)cc1C[P+](c1ccccc1)(c1ccccc1)c1ccccc1 | active |

Q: What did this assay record as the result for C[CH2][Sn]([CH2]C)([O]S(C)(=O)=O)[O]S(C)(=O)=O ?
Ans: inactive

Q: Check the results log: what was the call for CCCCCCCC1(c2ccc(N)cc2)CCC(=O)NC1=O (stereo not given) ?
Ans: inactive

Q: State the result this test recorded for C[CH2][Sn]([CH2]C)([S]CCS(=O)(=O)O)[S]CCS(=O)(=O)O (tested in a mixture with another compound) .
Ans: inactive

Q: Assay result, entry CCOC(=O)C(Cc1ccc(O)cc1)NCc1ccc(N(CCCl)CCCl)cc1 (stereo not given) — outcome?
Ans: active

Q: Record request — test call for C[CH2][Sn]1([CH2]C)[c]2ccccc2Oc2cccc[c]21
Ans: active

Q: Could you please tell me the result logged for N.N.N.N.N.N#N.[Cl-].[Os+7] in this assay?
Ans: active

Q: What did this assay record as the result for CCN(CCCl)c1cc(CN(C)C)cc(NC(=O)c2ccc(C(=O)Nc3cc(CN(C)C)cc(N(CC)CCCl)c3)cc2)c1 ?
Ans: active

Q: Hey, what did the test say about C=CCOc1cc2c(ccc1=O)-c1c(cc(OC)c(OC)c1OC)CCC2NC(C)=O (stereo not given) ?
Ans: active

Q: Test call for this compound, please: [O]=[Sb][c]1ccc(Cl)cc1
Ans: inactive

Q: Given CC(C)(C)OOC(=O)c1ccccc1 , state the outcome it received in this test.
Ans: active

Q: # outcome recorded in this test, key = O=C(O)CCCc1cc(I)c(N(CCCl)CCCl)c(I)c1
Ans: active

Q: Entry CCOC(=O)C1([Se]c2ccccc2)CCCC1=O (stereo not given) : call = ?
Ans: inactive

Q: Entry CCNCC(=O)O[C@]1(CC)C(=O)OCc2c1cc1n(c2=O)Cc2cc3ccccc3nc2-1 : call = ?
Ans: active
